- TGT: the molecule itself
- PROCEDURE_SUMMARY: crystal structure; hanging-drop vapor diffusion at 19 °C, protein 15-21 mg/mL with 0.5-1% v/v DDM; data at 100 K; molecular replacement with WT ReAV PDB 7os5; dimers in the asymmetric unit
OBSERVATION_TYPE: binding result

{"PROTEIN": "ReAV S80A mutant (Rhizobium etli Class 3, type V L-asparaginase) (enzyme, Cys249 most likely oxidized, modeled as cysteinesulfinic acid, ReAV, inducible thermolabile type V L-asparaginase of Rhizobium etli; Homodimer; source: E. coli BL21-Gold (DE3), purified (HisTrap, TEV digestion, second HisTrap, Superdex 200); mostly in inclusion bodies, about 10 mg/L recovered from the cell lysate) MTPSEDFVVTDRGGIVENSHRVHAAVVDAKGRLLYALGNPTRMTLARSAAKPAQALAILETEGVAGYGFDDADIALMCAAHSSEDRHIARTRAMLSKIKAEEADLRCGGHPSLSEMVNRSWIKQDFIPTAVCSNCSGKHVGMLAGARAIGAGTDGYHLPDHPMQGRVKRTVAELCDLDAGDVEWGTDGCNLPTPAFPLDRLGRIYAKLASAADGSDAGEGQSTRCAALAHIFRAMARHPEMVAGEGRYCTMLMRAFDGALVGKLGADASYAIGVRASDATRQLGTDGALGISVKIEDGNLEMLYAVVTELLERLGIGSPDVRSQLASFHHPQRVNTMGVTTGGVSFPFKLRGSKSNVDDPRLAAVAR", "ENDPOINT_VALUE": "binds"}
{"PROTEIN": "ReAV K263A mutant (Rhizobium etli Class 3, type V L-asparaginase) (enzyme, Cys249 chemically modified, modeled as S-hydroxycysteine, ReAV, inducible thermolabile type V L-asparaginase of Rhizobium etli; Homodimer; Zn2+ at occupancy 0.8 in the crystal; source: E. coli BL21-Gold (DE3), purified (HisTrap, TEV digestion, second HisTrap, Superdex 200)) MTPSEDFVVTDRGGIVENSHRVHAAVVDAKGRLLYALGNPTRMTLARSAAKPAQALAILETEGVAGYGFDDADIALMCASHSSEDRHIARTRAMLSKIKAEEADLRCGGHPSLSEMVNRSWIKQDFIPTAVCSNCSGKHVGMLAGARAIGAGTDGYHLPDHPMQGRVKRTVAELCDLDAGDVEWGTDGCNLPTPAFPLDRLGRIYAKLASAADGSDAGEGQSTRCAALAHIFRAMARHPEMVAGEGRYCTMLMRAFDGALVGALGADASYAIGVRASDATRQLGTDGALGISVKIEDGNLEMLYAVVTELLERLGIGSPDVRSQLASFHHPQRVNTMGVTTGGVSFPFKLRGSKSNVDDPRLAAVAR", "ENDPOINT_VALUE": "binds"}
